Reported pIC50 values are given for each entry in this list.
- MEASURED ON: PIK3CD (Human) (UniProt O00329)
- Sequence (O00329 whole entry, looked up): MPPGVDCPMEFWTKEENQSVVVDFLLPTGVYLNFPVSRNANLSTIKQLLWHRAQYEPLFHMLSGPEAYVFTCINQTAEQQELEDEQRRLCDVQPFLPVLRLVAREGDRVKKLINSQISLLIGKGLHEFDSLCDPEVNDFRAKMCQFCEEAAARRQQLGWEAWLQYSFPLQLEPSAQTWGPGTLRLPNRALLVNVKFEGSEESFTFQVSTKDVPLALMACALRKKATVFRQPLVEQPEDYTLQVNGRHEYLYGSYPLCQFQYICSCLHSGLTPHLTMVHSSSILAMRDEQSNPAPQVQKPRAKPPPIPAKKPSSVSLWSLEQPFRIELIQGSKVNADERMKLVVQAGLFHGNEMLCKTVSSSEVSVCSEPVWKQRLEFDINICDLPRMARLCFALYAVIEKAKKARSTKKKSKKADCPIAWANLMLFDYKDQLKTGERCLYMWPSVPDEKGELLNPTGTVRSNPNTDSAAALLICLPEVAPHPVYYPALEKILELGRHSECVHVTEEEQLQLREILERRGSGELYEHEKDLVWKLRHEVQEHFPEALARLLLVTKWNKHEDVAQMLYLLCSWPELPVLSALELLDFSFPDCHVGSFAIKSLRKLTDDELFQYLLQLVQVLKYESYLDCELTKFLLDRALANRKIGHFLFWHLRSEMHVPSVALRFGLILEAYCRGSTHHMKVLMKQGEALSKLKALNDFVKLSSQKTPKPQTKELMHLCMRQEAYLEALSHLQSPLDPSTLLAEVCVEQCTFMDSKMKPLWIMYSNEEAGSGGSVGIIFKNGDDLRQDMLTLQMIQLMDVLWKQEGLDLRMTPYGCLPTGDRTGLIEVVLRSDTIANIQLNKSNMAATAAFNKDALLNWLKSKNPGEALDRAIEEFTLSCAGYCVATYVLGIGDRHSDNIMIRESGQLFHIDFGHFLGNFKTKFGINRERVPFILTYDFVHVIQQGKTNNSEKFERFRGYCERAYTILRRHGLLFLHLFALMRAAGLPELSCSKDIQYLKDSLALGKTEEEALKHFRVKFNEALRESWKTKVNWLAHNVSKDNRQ
- METHOD SUMMARY: Cell-Based Assay
- CONDITION DESCRIPTION: raji
pIC50: −log10 of the molar value.

MOLECULE: C[C@H](NC(=O)c1c(N)nn2cccnc12)c1cc2cccc(C#Cc3cncn3C)c2c(=O)n1C1CC1
pIC50: 6.30 to 7.00

MOLECULE: COC(C)C#Cc1cccc2cc([C@H](C)NC(=O)c3c(N)nn4cccnc34)n(-c3ccccc3)c(=O)c12 (some centres undefined)
pIC50: 5.00 to 6.00

MOLECULE: C[C@H](NC(=O)c1c(N)nn2cccnc12)c1cc2cccc(C#CC3CNC3)c2c(=O)n1-c1ccccc1
pIC50: 5.00 to 6.00

Return value of pIC50 for input Cc1c(C#Cc2cccc3cc([C@H](C)NC(=O)c4c(N)nn5cccnc45)n(-c4ccccc4)c(=O)c23)cnn1C , no commentary. 6.00 to 6.30
